Biological target: human S1P receptor EDG-1 (S1P1) (Homo sapiens, UniProt P21453)
Sequence (P21453 whole entry): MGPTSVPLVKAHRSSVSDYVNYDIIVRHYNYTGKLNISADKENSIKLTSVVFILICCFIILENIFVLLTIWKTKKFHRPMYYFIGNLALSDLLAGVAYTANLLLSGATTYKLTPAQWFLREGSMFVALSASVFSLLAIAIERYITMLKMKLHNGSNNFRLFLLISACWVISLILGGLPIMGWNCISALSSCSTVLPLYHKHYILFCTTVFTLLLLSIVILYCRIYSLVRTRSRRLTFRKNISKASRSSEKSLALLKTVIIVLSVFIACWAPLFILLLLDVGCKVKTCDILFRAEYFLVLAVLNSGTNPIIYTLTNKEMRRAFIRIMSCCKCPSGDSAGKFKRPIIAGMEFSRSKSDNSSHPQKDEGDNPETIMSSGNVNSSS
Assay: GTP[γ-35S] binding SPA, S1P receptor profiling (S1P1)
Details: membranes of transfected CHO or RH7777 cells, GTP[γ-35S] SPA
pEC50: −log10 of the molar value.

{"Compound": "CCCCCCCOc1ccc(CC[C@@](C)(N)CC(=O)O)cc1 [Example 1]", "Measured target": "human S1P receptor EDG-1 (S1P1) (Homo sapiens, UniProt P21453)", "pEC50": 7.96}

* * *

Biological target: human S1P receptor EDG-3 (S1P3) (Homo sapiens, UniProt Q99500)
Sequence (Q99500 whole entry): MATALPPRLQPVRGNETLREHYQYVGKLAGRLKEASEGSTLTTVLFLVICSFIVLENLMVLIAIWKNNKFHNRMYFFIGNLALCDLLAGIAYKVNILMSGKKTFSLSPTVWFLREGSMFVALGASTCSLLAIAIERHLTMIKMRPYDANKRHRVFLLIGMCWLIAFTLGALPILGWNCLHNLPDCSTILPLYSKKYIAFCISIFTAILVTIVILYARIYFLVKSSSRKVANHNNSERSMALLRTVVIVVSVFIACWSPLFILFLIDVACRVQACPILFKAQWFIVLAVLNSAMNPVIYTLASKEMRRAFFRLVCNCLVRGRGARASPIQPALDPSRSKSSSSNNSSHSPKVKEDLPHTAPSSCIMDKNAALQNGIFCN
Experiment: GTP[γ-35S] binding SPA, S1P receptor profiling (S1P3)
Conditions: membranes of transfected CHO or RH7777 cells, GTP[γ-35S] SPA

{"Compound": "CCCCCCCOc1ccc(CC[C@@](C)(N)CC(=O)O)cc1 [Example 1]", "Unit abbrev": "µM", "EC50": 0.209}

* * *

Biological target: human S1P receptor EDG-8 (S1P5) (Homo sapiens)
Sequence (Q9H228 whole entry): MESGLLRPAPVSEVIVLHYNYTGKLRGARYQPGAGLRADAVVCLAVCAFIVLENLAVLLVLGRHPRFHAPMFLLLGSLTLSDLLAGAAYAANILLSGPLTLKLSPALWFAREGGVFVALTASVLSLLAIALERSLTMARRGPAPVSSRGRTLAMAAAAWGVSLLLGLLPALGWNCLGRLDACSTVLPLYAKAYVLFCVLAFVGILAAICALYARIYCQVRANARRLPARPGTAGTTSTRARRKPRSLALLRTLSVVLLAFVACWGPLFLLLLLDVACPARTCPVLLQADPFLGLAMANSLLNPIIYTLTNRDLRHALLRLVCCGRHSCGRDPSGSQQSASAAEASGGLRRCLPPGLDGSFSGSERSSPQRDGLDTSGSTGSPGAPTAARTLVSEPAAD
Assay: GTP[γ-35S] binding SPA, S1P receptor profiling (S1P5)
Settings: membranes of transfected CHO or RH7777 cells, GTP[γ-35S] SPA
Description: Sphingosine-1-phosphate (SIP) Receptor Profiling Agonist activities of compounds are tested on the human S1P receptors EDG-1 (S1P1), EDG-3 (S1P3), EDG-5 (S1P2), EDG-6 (S1P4) and EDG-8 (S1P5). […] The assay technology used is SPA (scintillation proximity based assay). […] Luminescence of SPA beads triggered by membrane bound GTP [γ^35S] is quantified with a TOPcount plate reader (Packard). EC50s are calculated using standard curve fitting software. […]
Quantity name: EC50 (nM)

{"Molecule smiles": "CCCCCCCOc1ccc(CC[C@@](C)(N)CC(=O)O)cc1", "Val": 203}

Data provenance: patent US7728020B2
